protocol notes: qHTS for induction of synthetic lethality in tumor cells producing 2HG: qHTS for the HT-1080-NT fibrosarcoma cell line;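 further: NT is the 2HG producing partner of a matched IDH1 knockdown line; nearly all actives have a fitted effect of over 55% in size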
measurement conditions: HT-1080-NT fibrosarcoma viability, CellTiter-Glo ATP luminescence, 48 h; series mostly up to 46.1 µM
In all, about 360,000 compounds went through this assay and about 6,000 (1.7%) were called active. Not shown: some 8% with an inconclusive outcome. The call rests on the fitted dose curve; in most records, active means well fitted cell-killing curve with a large enough effect; inconclusive means small, poorly fitted or top-dose-only effect, or effect the other way; inactive means flat fitted curve, though single readings scatter. The sample holds actives, similar compounds and a random draw of the others, so the mix is not that of the screen.
Possible outcomes: active, inactive

In [3]: df
Out[3]:
                                    compound  class_assignment
 0   Cc1ccc(Cc2c(-c3ccco3)nc3ccc(Cl)cn23)cc1            active
 1  Cc1cc(=O)oc2cc(OCC3CC(c4ccccc4Cl)=NO3)ccc12 (stereo unspecified)            active
 2          COc1cc(/C=N/Nc2nc3ccccc3s2)ccc1O            active
 3  CCOc1cc(/C=N/Nc2cc(C)nc3ccc(C)cc23)ccc1O          inactive
 4  Cc1ccc(Cc2c(-c3ccccc3)nc3ccc(Cl)cn23)cc1          inactive
 5      Cc1cc(=O)oc2cc(OCCC[n+]3ccccc3)ccc12          inactive
 6  Cc1ccc(S(=O)(=O)N(Cc2cccc([N+](=O)[O-])c2)C(=O)N2CCN(C)CC2)cc1          inactive
 7  COc1ccc2c(c1)CCCO[C@]21O[C@H](CCO)C[C@H](O)[C@H]1O          inactive
 8    Cc1ccc(-c2nc3ccc(Cl)cn3c2Cc2ccccc2)cc1          inactive
 9  CCCCC(O)C1=C[N+](=O)CC=C1 (stereo unspecified)          inactive
10  CC1=C(C(=O)N(C(C)C)C(C)C)CC(CC(=O)NCC2CCCCC2)C(=O)N1Cc1ccccc1 (stereo unspecified)          inactive

* * *

protocol notes: qHTS for induction of synthetic lethality in tumor cells producing 2HG: qHTS for the HT-1080-NT fibrosarcoma cell line;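 further: NT is the 2HG producing partner of a matched IDH1 knockdown line; nearly all actives have a fitted effect of over 55% in size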
measurement conditions: HT-1080-NT fibrosarcoma viability, CellTiter-Glo ATP luminescence, 48 h; series mostly up to 46.1 µM
Description: Unbiased genomic sequencing for 22 glioma genomes found recurrent mutation of IDH1 on chromosome 2q33, a gene encoding the cytosolic isoform of IDH1 associated with the tricarboxylic acid cycle (TCA) that catalyzes the oxidative decarboxylation of isocitrate, yielding alpha-ketoglutarate and CO2 via NADP+ to NADPH conversion. […] Concentration-response curves were fitted to the signals arising from the resulting luminescence. […]
Hit rate of the full screen: of about 360,000 compounds, about 6,000 (1.7%) were called active. About 8% were inconclusive and are not listed. Calls come from the whole dose curve; as a rule, active = well fitted cell-killing curve with a large enough effect; inconclusive = small, poorly fitted or top-dose-only effect, or effect the other way; inactive = flat fitted curve, though single readings scatter. What follows is part of a selection rich in actives, with near analogues and random picks from the rest.
Possible outcomes: true (1) = active, false (0) = inactive

>>> df
                                    molecule  class_assignment
 0  CCCCCCN1C[C@H](O)[C@@H](n2cc(C3CC3)nn2)C[C@@H]1c1ccc(Cl)cc1         false (0)
 1              O=C(Nc1nnc(C2CC2)s1)c1ccccn1          true (1)
 2  Cc1ccc(C)c(S(=O)(=O)N2CCN(c3ncnc4sccc34)CC2)c1          true (1)
 3          O=C(O)c1ccccc1Cc1ccc(F)c2ccccc12         false (0)
 4    COc1ccc(Oc2c(Cl)cnn(-c3ccccc3)c2=O)cc1          true (1)
 5  Cc1ccc(S(=O)(=O)N2CCN(c3ncnc4ccccc34)CC2)cc1         false (0)
 6  CCOC(=O)c1c(NC(=O)COC(=O)c2ccc(S(=O)(=O)C(F)F)cc2)sc(C(=O)N(C)C)c1C         false (0)
 7  CCNC(=O)C1(C)CCCN(Cc2noc(-c3ccccc3OC)n2)C1 (configuration not stated)         false (0)
 8  COc1ccc(NC(=O)c2nc(-n3nc(C)cc3C)ccc2Cl)cc1Cl         false (0)
 9  CCCS(=O)(=O)NC(=O)C1(C)CCCN(C(=O)c2cc(C)on2)C1 (configuration not stated)         false (0)
10                  O=C(Nc1ccccc1)c1ccccc1Br         false (0)
11  COc1cccc(OCC(=O)NCCS(=O)(=O)N2CCN(c3ccccc3)CC2)c1         false (0)
12  COC(=O)C1C(=O)c2c([nH]c(C(=O)OCCSC)c2C)CC1C (configuration not stated)         false (0)
13  COCCOC(=O)c1[nH]c2c(c1C)C(=O)CC(c1ccc(OC)cc1)C2 (configuration not stated)         false (0)
14       COc1cc(C(=O)OCCCN2CCOCC2)cc(OC)c1OC         false (0)
15  COc1cccc(-c2ccc3c(c2)N(Cc2ccccc2OC)C(=O)C(C)S3)c1 (configuration not stated)         false (0)
16  COC(=O)c1ccc2nc(-c3ccc(F)cc3)c(Cc3ccc(C)cc3)n2c1         false (0)
17      COc1ccc(Nc2cc(Sc3ccc(OC)cc3)ncn2)cc1         false (0)
18  CCOC(=O)C1(C)CCCN(C(=O)c2ccc(F)c(Cl)c2)C1 (configuration not stated)         false (0)
19  COc1ccc([C@H]2CC(=O)C[C@@H](CCn3cc(CC4CCCC4)nn3)O2)cc1         false (0)
20  CCCNC(=O)C1(C)CCN(Cc2csc(-c3ccc(Cl)cc3)n2)C1 (configuration not stated)         false (0)
21  CCN1C(=O)[C@@H]2[C@@H]3CN(S(=O)(=O)c4ccccc4C)[C@@H](c4ccc(Cl)cc4)[C@@H]3C(=O)C[C@@H]2C1=O         false (0)
